Listed here are molecules together with their documented MIC.
Tested on: Streptococcus pneumoniae
Test: Antibacterial activity against Streptococcus pneumoniae 31002 by CLSI agar microdilution method
Assay type: functional
Report only the number, with the unit mg/L understood.

Sample answers from the record:
smiles	result
CN[C@H](CC(C)C)C(=O)N[C@H]1C(=O)N[C@@H](CC(N)=O)C(=O)N[C@H]2C(=O)N[C@H]3C(=O)N[C@H](C(=O)N[C@@H](C(=O)O)c4cc(O)cc(O)c4-c4cc3ccc4O)[C@H](O[C@H]3C[C@](C)(N)[C@H](O)[C@H](C)O3)c3ccc(c(Cl)c3)Oc3cc2cc(c3O[C@@H]2O[C@H](CO)[C@@H](O)[C@H](O)[C@H]2O[C@H]2C[C@](C)(NCc3ccccc3Br)[C@H](O)[C@H](C)O2)Oc2ccc(cc2Cl)[C@H]1O	0.195
CN[C@H](CC(C)C)C(=O)N[C@H]1C(=O)N[C@@H](CC(N)=O)C(=O)N[C@H]2C(=O)N[C@H]3C(=O)N[C@H](C(=O)N[C@@H](C(=O)O)c4cc(O)cc(O)c4-c4cc3ccc4O)[C@H](O[C@H]3C[C@](C)(N)[C@H](O)[C@H](C)O3)c3ccc(c(Cl)c3)Oc3cc2cc(c3O[C@@H]2O[C@H](CO)[C@@H](O)[C@H](O)[C@H]2O[C@H]2C[C@](C)(NCc3ccc(Cl)c(Cl)c3)[C@H](O)[C@H](C)O2)Oc2ccc(cc2Cl)[C@H]1O	0.78
CN[C@H](CC(C)C)C(=O)N[C@H]1C(=O)N[C@@H](CC(N)=O)C(=O)N[C@H]2C(=O)N[C@H]3C(=O)N[C@H](C(=O)N[C@@H](C(=O)O)c4cc(O)cc(O)c4-c4cc3ccc4O)[C@H](O[C@H]3C[C@](C)(N)[C@H](O)[C@H](C)O3)c3ccc(c(Cl)c3)Oc3cc2cc(c3O[C@@H]2O[C@H](CO)[C@@H](O)[C@H](O)[C@H]2O[C@H]2C[C@](C)(NCc3ccc(Oc4ccc(OC)cc4)cc3)[C@H](O)[C@H](C)O2)Oc2ccc(cc2Cl)[C@H]1O	1.56
CN[C@H](CC(C)C)C(=O)N[C@H]1C(=O)N[C@@H](CC(N)=O)C(=O)N[C@H]2C(=O)N[C@H]3C(=O)N[C@H](C(=O)N[C@@H](C(=O)O)c4cc(O)cc(O)c4-c4cc3ccc4O)[C@H](O[C@H]3C[C@](C)(N)[C@H](O)[C@H](C)O3)c3ccc(c(Cl)c3)Oc3cc2cc(c3O[C@@H]2O[C@H](CO)[C@@H](O)[C@H](O)[C@H]2O[C@H]2C[C@](C)(NCc3ccc(Oc4cccc(OC)c4)cc3)[C@H](O)[C@H](C)O2)Oc2ccc(cc2Cl)[C@H]1O	3.13
CCCCCCCCCCN[C@@]1(C)C[C@H](O[C@H]2[C@H](Oc3c4cc5cc3Oc3ccc(cc3Cl)[C@@H](O[C@H]3C[C@](C)(N)[C@H](O)[C@H](C)O3)[C@@H]3NC(=O)[C@H](NC(=O)[C@@H]5NC(=O)[C@H](CC(N)=O)NC(=O)[C@H](NC(=O)[C@@H](CC(C)C)NC)[C@H](O)c5ccc(c(Cl)c5)O4)c4ccc(O)c(c4)-c4c(O)cc(O)cc4[C@H](C(=O)O)NC3=O)O[C@H](CO)[C@@H](O)[C@@H]2O)O[C@@H](C)[C@H]1O	6.25
CCCCCCCCCOc1ccc(CN[C@@]2(C)C[C@H](O[C@H]3[C@H](Oc4c5cc6cc4Oc4ccc(cc4Cl)[C@@H](O[C@H]4C[C@](C)(N)[C@H](O)[C@H](C)O4)[C@@H]4NC(=O)[C@H](NC(=O)[C@@H]6NC(=O)[C@H](CC(N)=O)NC(=O)[C@H](NC(=O)[C@@H](CC(C)C)NC)[C@H](O)c6ccc(c(Cl)c6)O5)c5ccc(O)c(c5)-c5c(O)cc(O)cc5[C@H](C(=O)O)NC4=O)O[C@H](CO)[C@@H](O)[C@@H]3O)O[C@@H](C)[C@H]2O)cc1	12.5
CCCCCCCCCN[C@@]1(C)C[C@H](O[C@H]2[C@H](Oc3c4cc5cc3Oc3ccc(cc3Cl)[C@@H](O[C@H]3C[C@](C)(N)[C@H](O)[C@H](C)O3)[C@@H]3NC(=O)[C@H](NC(=O)[C@@H]5NC(=O)[C@H](CC(N)=O)NC(=O)[C@H](NC(=O)[C@@H](CC(C)C)NC)[C@H](O)c5ccc(c(Cl)c5)O4)c4ccc(O)c(c4)-c4c(O)cc(O)cc4[C@H](C(=O)O)NC3=O)O[C@H](CO)[C@@H](O)[C@@H]2O)O[C@@H](C)[C@H]1O	1.56
CCCCN[C@@]1(C)C[C@H](O[C@H]2[C@H](Oc3c4cc5cc3Oc3ccc(cc3Cl)[C@@H](O[C@H]3C[C@](C)(N)[C@H](O)[C@H](C)O3)[C@@H]3NC(=O)[C@H](NC(=O)[C@@H]5NC(=O)[C@H](CC(N)=O)NC(=O)[C@H](NC(=O)[C@@H](CC(C)C)NC)[C@H](O)c5ccc(c(Cl)c5)O4)c4ccc(O)c(c4)-c4c(O)cc(O)cc4[C@H](C(=O)O)NC3=O)O[C@H](CO)[C@@H](O)[C@@H]2O)O[C@@H](C)[C@H]1O	0.39

I would be grateful if you could share the reported MIC for CCCCCN[C@@]1(C)C[C@H](O[C@H]2[C@H](Oc3c4cc5cc3Oc3ccc(cc3Cl)[C@@H](O[C@H]3C[C@](C)(N)[C@H](O)[C@H](C)O3)[C@@H]3NC(=O)[C@H](NC(=O)[C@@H]5NC(=O)[C@H](CC(N)=O)NC(=O)[C@H](NC(=O)[C@@H](CC(C)C)NC)[C@H](O)c5ccc(c(Cl)c5)O4)c4ccc(O)c(c4)-c4c(O)cc(O)cc4[C@H](C(=O)O)NC3=O)O[C@H](CO)[C@@H](O)[C@@H]2O)O[C@@H](C)[C@H]1O .
0.39

----------
Test system: Streptococcus pneumoniae
Experiment: Antibacterial activity against Streptococcus pneumoniae 31002 by CLSI agar microdilution method
Assay type: functional
This section presents compounds with their documented MIC values.
// units = µg/mL; emit number, no label

Here are 5 compounds together with their reported answers.
smiles	MIC [µg/mL]
CN[C@H](CC(C)C)C(=O)N[C@H]1C(=O)N[C@@H](CC(N)=O)C(=O)N[C@H]2C(=O)N[C@H]3C(=O)N[C@H](C(=O)N[C@@H](C(=O)O)c4cc(O)cc(O)c4-c4cc3ccc4O)[C@H](O[C@H]3C[C@](C)(N)[C@H](O)[C@H](C)O3)c3ccc(c(Cl)c3)Oc3cc2cc(c3O[C@@H]2O[C@H](CO)[C@@H](O)[C@H](O)[C@H]2O[C@H]2C[C@](C)(NCc3ccccc3Cl)[C@H](O)[C@H](C)O2)Oc2ccc(cc2Cl)[C@H]1O	0.78
CN[C@H](CC(C)C)C(=O)N[C@H]1C(=O)N[C@@H](CC(N)=O)C(=O)N[C@H]2C(=O)N[C@H]3C(=O)N[C@H](C(=O)N[C@@H](C(=O)O)c4cc(O)cc(O)c4-c4cc3ccc4O)[C@H](O[C@H]3C[C@](C)(N)[C@H](O)[C@H](C)O3)c3ccc(c(Cl)c3)Oc3cc2cc(c3O[C@@H]2O[C@H](CO)[C@@H](O)[C@H](O)[C@H]2O[C@H]2C[C@](C)(NCc3cccc(Cl)c3)[C@H](O)[C@H](C)O2)Oc2ccc(cc2Cl)[C@H]1O	0.78
CN[C@H](CC(C)C)C(=O)N[C@H]1C(=O)N[C@@H](CC(N)=O)C(=O)N[C@H]2C(=O)N[C@H]3C(=O)N[C@H](C(=O)N[C@@H](C(=O)O)c4cc(O)cc(O)c4-c4cc3ccc4O)[C@H](O[C@H]3C[C@](C)(N)[C@H](O)[C@H](C)O3)c3ccc(c(Cl)c3)Oc3cc2cc(c3O[C@@H]2O[C@H](CO)[C@@H](O)[C@H](O)[C@H]2O[C@H]2C[C@](C)(NCc3ccc(Cl)cc3Cl)[C@H](O)[C@H](C)O2)Oc2ccc(cc2Cl)[C@H]1O	3.13
CN[C@H](CC(C)C)C(=O)N[C@H]1C(=O)N[C@@H](CC(N)=O)C(=O)N[C@H]2C(=O)N[C@H]3C(=O)N[C@H](C(=O)N[C@@H](C(=O)O)c4cc(O)cc(O)c4-c4cc3ccc4O)[C@H](O[C@H]3C[C@](C)(N)[C@H](O)[C@H](C)O3)c3ccc(c(Cl)c3)Oc3cc2cc(c3O[C@@H]2O[C@H](CO)[C@@H](O)[C@H](O)[C@H]2O[C@H]2C[C@](C)(NCc3ccc(-c4ccc(Cl)cc4)cc3)[C@H](O)[C@H](C)O2)Oc2ccc(cc2Cl)[C@H]1O	3.13
CN[C@H](CC(C)C)C(=O)N[C@H]1C(=O)N[C@@H](CC(N)=O)C(=O)N[C@H]2C(=O)N[C@H]3C(=O)N[C@H](C(=O)N[C@@H](C(=O)O)c4cc(O)cc(O)c4-c4cc3ccc4O)[C@H](O[C@H]3C[C@](C)(N)[C@H](O)[C@H](C)O3)c3ccc(c(Cl)c3)Oc3cc2cc(c3O[C@@H]2O[C@H](CO)[C@@H](O)[C@H](O)[C@H]2O[C@H]2C[C@](C)(NCc3ccc(OC)cc3)[C@H](O)[C@H](C)O2)Oc2ccc(cc2Cl)[C@H]1O	0.78

# MIC lookup, item CN[C@H](CC(C)C)C(=O)N[C@H]1C(=O)N[C@@H](CC(N)=O)C(=O)N[C@H]2C(=O)N[C@H]3C(=O)N[C@H](C(=O)N[C@@H](C(=O)O)c4cc(O)cc(O)c4-c4cc3ccc4O)[C@H](O[C@H]3C[C@](C)(N)[C@H](O)[C@H](C)O3)c3ccc(c(Cl)c3)Oc3cc2cc(c3O[C@@H]2O[C@H](CO)[C@@H](O)[C@H](O)[C@H]2O[C@H]2C[C@](C)(NCc3cccc(Br)c3)[C@H](O)[C@H](C)O2)Oc2ccc(cc2Cl)[C@H]1O
0.78

Then this compound: CCCCCCOc1ccc(CN[C@@]2(C)C[C@H](O[C@H]3[C@H](Oc4c5cc6cc4Oc4ccc(cc4Cl)[C@@H](O[C@H]4C[C@](C)(N)[C@H](O)[C@H](C)O4)[C@@H]4NC(=O)[C@H](NC(=O)[C@@H]6NC(=O)[C@H](CC(N)=O)NC(=O)[C@H](NC(=O)[C@@H](CC(C)C)NC)[C@H](O)c6ccc(c(Cl)c6)O5)c5ccc(O)c(c5)-c5c(O)cc(O)cc5[C@H](C(=O)O)NC4=O)O[C@H](CO)[C@@H](O)[C@@H]3O)O[C@@H](C)[C@H]2O)cc1
3.13

What do we get for CN[C@H](CC(C)C)C(=O)N[C@H]1C(=O)N[C@@H](CC(N)=O)C(=O)N[C@H]2C(=O)N[C@H]3C(=O)N[C@H](C(=O)N[C@@H](C(=O)O)c4cc(O)cc(O)c4-c4cc3ccc4O)[C@H](O[C@H]3C[C@](C)(N)[C@H](O)[C@H](C)O3)c3ccc(c(Cl)c3)Oc3cc2cc(c3O[C@@H]2O[C@H](CO)[C@@H](O)[C@H](O)[C@H]2O[C@H]2C[C@](C)(NCc3ccc(Br)cc3)[C@H](O)[C@H](C)O2)Oc2ccc(cc2Cl)[C@H]1O ?
1.56

And for CN[C@H](CC(C)C)C(=O)N[C@H]1C(=O)N[C@@H](CC(N)=O)C(=O)N[C@H]2C(=O)N[C@H]3C(=O)N[C@H](C(=O)N[C@@H](C(=O)O)c4cc(O)cc(O)c4-c4cc3ccc4O)[C@H](O[C@H]3C[C@](C)(N)[C@H](O)[C@H](C)O3)c3ccc(c(Cl)c3)Oc3cc2cc(c3O[C@@H]2O[C@H](CO)[C@@H](O)[C@H](O)[C@H]2O[C@H]2C[C@](C)(NCc3ccc(-c4ccccc4)cc3)[C@H](O)[C@H](C)O2)Oc2ccc(cc2Cl)[C@H]1O ?
1.56
